Where these numbers come from: the supplement of paper PMC6555819

system: LXRb:RXRa (NR concentration 270 nM, RXRa partner concentration 90 nM); assay: PBM binding z-score (relative to random genomic background probes); higher = stronger binding; sequences stand for … in GC…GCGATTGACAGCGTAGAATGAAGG
The threshold is inclusive: PBM binding z-score of exactly 0.6 counts as true (1); values below receive false (0).

Known results for sequences:
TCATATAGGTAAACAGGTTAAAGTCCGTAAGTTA	true (1)
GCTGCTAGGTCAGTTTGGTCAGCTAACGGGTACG	false (0)
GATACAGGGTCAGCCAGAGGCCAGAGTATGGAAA	true (1)
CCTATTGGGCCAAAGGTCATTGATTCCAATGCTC	true (1)
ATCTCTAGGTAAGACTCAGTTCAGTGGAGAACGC	false (0)

Check the entry `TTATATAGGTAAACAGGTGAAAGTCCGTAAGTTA` : does PBM binding z-score equal or exceed 0.6? true (1)

Check the entry `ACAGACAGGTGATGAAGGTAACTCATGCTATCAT` : does PBM binding z-score equal or exceed 0.6? false (0)
